# Tested on: A549
# procedure.text: relative viability (normalised to negative control = 1, bortezomib = 0) (fraction); higher = less cytotoxic
# measurement.conditions: inflammatory serum-free RHB-A with cytokines + LPS; 5 d + 24 h CellTiter-Blue; compound 300 nM; GSK126 pretreatment: none (vehicle)
Attribute: relative viability
readout: relative viability

{"compound": "CNC(=O)Nc1ccc(-c2nc(N3CC4CCC(C3)O4)c3cnn(C4CCC5(CC4)OCCO5)c3n2)cc1", "experimental.value": 0.237}
{"compound": "O=C(NC[C@H](O)CO)c1ccncc1Nc1ccc(I)cc1F", "experimental.value": 0.159}
{"compound": "Cc1cc(Nc2cc(N3CCN(C)CC3)nc(/C=C/c3ccccc3)n2)n[nH]1", "experimental.value": 0.769}
{"compound": "C[C@@H](CN1CC(=O)NC(=O)C1)N1CC(=O)NC(=O)C1", "experimental.value": 0.908}
{"compound": "Cc1nc(NC(=O)N2CCC[C@H]2C(N)=O)sc1-c1csc(C(C)(C)C)n1", "experimental.value": 0.784}
{"compound": "COc1ccc(-c2ccc3c(N4CCOC[C@@H]4C)nc(N4CCOC[C@@H]4C)nc3n2)cc1CO", "experimental.value": 0.197}
{"compound": "CC(=O)Nc1nc(C)c(-c2ccc(Cl)c(S(=O)(=O)NCCO)c2)s1", "experimental.value": 0.712}
{"compound": "CC(=O)O[C@]1(C(C)=O)CC[C@H]2[C@@H]3C=C(C)C4=CC(=O)CC[C@]4(C)[C@H]3CC[C@@]21C [Megestrol acetate]", "experimental.value": 1.55}
{"compound": "FC(F)(F)c1ccc(/C=C/c2nc(COc3ccc(CCCCn4ccnn4)cc3)co2)cc1", "experimental.value": 0.94}
{"compound": "CC1(COc2ccc3c(c2)ncn3-c2ccc3cccc(N4CCC(N)CC4)c3n2)COC1", "experimental.value": 1.34}
{"compound": "CCOc1cc2ncc(C#N)c(Nc3ccc(F)c(Cl)c3)c2cc1NC(=O)/C=C/CN(C)C", "experimental.value": 0.0851}
{"compound": "CNC(=O)c1ccc(C)c(-n2c(C)cc(OCc3ccc(F)cc3F)c(Br)c2=O)c1", "experimental.value": 0.974}
{"compound": "CO[C@H]1C[C@@H]2CC[C@@H](C)[C@@](O)(O2)C(=O)C(=O)N2CCCC[C@H]2C(=O)O[C@H]([C@H](C)C[C@@H]2CC[C@@H](OP(C)(C)=O)[C@H](OC)C2)CC(=O)[C@H](C)/C=C(\\C)[C@@H](O)[C@@H](OC)C(=O)[C@H](C)C[C@H](C)/C=C/C=C/C=C/1C", "experimental.value": 0.523}
{"compound": "C[C@@H](Oc1cc(-n2cnc3ccc(CN4CCN(C)CC4)cc32)sc1C(N)=O)c1ccccc1C(F)(F)F", "experimental.value": 0.363}
{"compound": "O=NN(CCCl)C(=O)NC1CCCCC1", "experimental.value": 0.976}
{"compound": "COc1cc2c(N3CCN(C(=O)Nc4ccc(OC(C)C)cc4)CC3)ncnc2cc1OCCCN1CCCCC1", "experimental.value": 0.862}
